Item-by-item account of growth inhibition
- EXPERIMENTAL PROTOCOL: NCI Yeast Anticancer Drug Screen. Data for the rad18 strain (AID 177)
- STATED CONDITIONS: S. cerevisiae rad18 mutant growth inhibition; at 11.0 µM; active compounds read high
The panel holds about 79,000 compounds, 15% with a hit somewhere; the sample as a whole holds those more often.
EXPERIMENTAL ENDPOINT: growth inhibition (%)

> print(dat)
                                    compound  quantitative.readout
 1                      Cn1cnc(N)c1C(=N)[Se]                    58
 2  C[C@]12CCc3nonc3C1CC[C@@H]1C2CC[C@]2(C)C(=O)CCC12 (stereo not given in full)                    19
 3  CC(C)CC(NC(=O)C(N)C(C)C)C(=O)NC(CCCCN)C(=O)Nc1ccc(N(CCCl)CCCl)cc1 (stereo not given)                   -16
 4  CCCN(CCC)c1c([N+](=O)[O-])cc(S(N)(=O)=O)cc1[N+](=O)[O-]                     6
 5  N#Cc1cc(N(CCCl)CCCl)c([N+](=O)[O-])cc1[N+](=O)[O-]                    89
 6  CCC(=O)OC1CCn2c1nc1c2C(=O)C(C)=C(N2CC2)C1=O (stereo not given)                    87
 7  CC[C@](O)(C(=O)O)c1cc2n(c(=O)c1CO)Cc1cc3ccccc3nc1-2                    82
 8  C=C[C@H]1CN2CC[C@H]1C[C@@H]2[C@@H](O)c1ccnc2ccccc12                    -9
 9  O=c1oc2ccccc2c(O)c1C(c1ccc2ccccc2c1)c1c(O)c2ccccc2oc1=O                    33
10  COC(=O)C1=C(C(=O)OC)C2OC1c1cc3ccccc3cc12                    92
11                  N#CC(C#N)=Cc1ccc(C#N)cc1                    -1
12  Cn1cc(NC(=O)c2cc(NC(=O)CN=C(N)N)cn2C)cc1C(=O)NCCC(=N)N                    14
13        O=[N+]([O-])c1cc(S(=O)(=O)F)ccc1Cl                    30
14             c1ccc(N=c2nc(N3CCOCC3)ss2)cc1                    64
15                         CCCCCCCCCC[Se]C#N                    18
16                    Oc1ccc(Cl)cc1Cc1ccccc1                    54
17  CCc1cccc(C(C)C)c1NC1=C([n+]2ccc(C)cc2)C(=O)c2ccccc2C1=O                     0
18  O=[N+]([O-])c1ccc(C=Cc2ccccc2)cc1.[C-]#[O+].[C-]#[O+].[C-]#[O+].[Cr]                    94
19  CC1(Cl)CC(C)(/C=C/Cl)C(Cl)CC1Cl (stereo not given)                    12
20    O=P(Oc1ccc(Cl)cc1)(Oc1ccc(Cl)cc1)N1CC1                     0
21                            Br[Se]c1ccccn1                    96
22  CN(C)CCC(C(=O)C(Br)Br)(c1ccccc1)c1ccccc1                    88
23  COC(=O)C(F)C(Br)C(=O)OC (stereo not given)                    98
24    O=C(NNC(=O)OCC(Cl)(Cl)Cl)OCC(Cl)(Cl)Cl                     3
25  CCC1(OC(=O)CN)C(=O)OCc2c1cc1n(c2=O)Cc2cc3ccccc3nc2-1 (stereo not given)                    58

Data provenance is PubChem BioAssay (NCI).
